// values below are reported inhibition at 10 µM
target_or_system: human MAGL (His-hMAGL) (Homo sapiens)
Construct: made in house; host or cells: Escherichia coli BL21(DE3)
Sequence (Q99685 whole entry): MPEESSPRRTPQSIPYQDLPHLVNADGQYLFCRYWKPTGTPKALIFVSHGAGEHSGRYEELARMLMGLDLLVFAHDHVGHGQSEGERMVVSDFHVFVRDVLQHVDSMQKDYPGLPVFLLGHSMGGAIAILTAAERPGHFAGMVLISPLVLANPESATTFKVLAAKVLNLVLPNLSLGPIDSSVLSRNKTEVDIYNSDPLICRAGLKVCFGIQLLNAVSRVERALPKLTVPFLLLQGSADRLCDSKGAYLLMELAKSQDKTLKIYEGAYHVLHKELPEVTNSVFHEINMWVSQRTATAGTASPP
protocol_notes: Measurement of MAGL inhibitory activity by mass spectrometry
Type: biochemical
settings: 10 μM test compound; substrate 2-arachidonylglycerol, arachidonic acid by RapidFire-mass spectrometry
Protocol: Thereafter, to each well was added 150 μM 2-arachidonylglycerol (Tocris Bioscience) by 5 μL, and the mixture was incubated at room temperature for 10 min. […] The amount of arachidonic acid in the obtained enzyme reaction mixture was calculated by measuring by RapidFire-mass spectrometry and correcting by the amount of arachidonic acid-d8. […] The peak area integration was analyzed using RapidFire integrator software version 3.6 (Agilent Technologies, Inc.). […]
quantity_measured: inhibition at 10 µM (%)

compound: O=C(c1nccs1)N1CCN(C2CC(=O)N(c3cccc(-c4c(F)cccc4F)c3)C2)CC1 (stereo not drawn)
target_or_system: human MAGL (His-hMAGL) (Homo sapiens)
quantity_measured: inhibition at 10 µM
measured_number: 102

compound: O=C(c1nccs1)N1CCN(C2CC(=O)N(c3ccc4c(ccn4-c4ccc(C(F)(F)F)nn4)c3)C2)CC1 (stereo not drawn)
target_or_system: human MAGL (His-hMAGL) (Homo sapiens)
quantity_measured: inhibition at 10 µM
measured_number: 101

compound: Cc1cccc(C)c1-c1cccc(N2CC(N3CCN(C(=O)c4nccs4)CC3)CC2=O)c1 (stereo not drawn)
target_or_system: human MAGL (His-hMAGL) (Homo sapiens)
quantity_measured: inhibition at 10 µM
measured_number: 101
